Where do these numbers come from? They come from ChEMBL document CHEMBL1777732.

pKi: −log10 of the molar value.
Here's a batch of compounds along with measured pKi for Metabotropic glutamate receptor 5 (Homo sapiens, UniProt P41594).
MEASUREMENT KIND: pKi

O=C(NC1CCCC1)c1ccc(C#Cc2ccccc2)nc1 ... 5.48
CC(C)N1CCc2nc(C#Cc3cccnc3)ccc2C1=O ... 4.71
O=C(NC1CCCC1)c1ccc(C#Cc2ccccn2)nc1 ... 5.12
Cc1cccc(C#Cc2ccc3c(n2)CCN(C)C3=O)c1 ... 6.09

(P) CC(C)N1CCc2nc(C#Cc3cccc(Cl)c3)ccc2C1=O
(Q) O=C1c2ccc(C#Cc3ccccc3)nc2CCN1C1CCCC1
Task: Exercise: compare P and Q ; which one has the greater pKi? Returns: label corresponding to the selected item.
Output: P
(P: 7.00, Q: 6.05)

(1) O=C1c2ccc(C#Cc3cccs3)nc2CCN1C1CCCC1
(2) CC(C)NC(=O)c1ccc(C#Cc2ccccc2)nc1
Task: Which value of pKi is smaller, the one for 1 or the one for 2 ? Returns: label corresponding to the selected item.
Output: 2
(2: 5.15, 1: 5.55)

(I) Cc1cccc(C#Cc2ccc3c(n2)CCN(C(C)C)C3=O)c1
(II) CN1CCc2nc(C#Cc3ccccn3)ccc2C1=O
Task: Which value of pKi is smaller, the one for I or the one for II ? Returns: label corresponding to the selected item.
Output: II
(II: 5.20, I: 6.29)
